Test system: L1210
procedure_details: In vivo antitumor activity in L1210 (mouse leukemia) inoculated mice (optimal dose).
Assay type: functional
experimental_endpoint: OD (mg/kg)
Give bare numbers, in mg/kg.

COc1ccc2c(c1)c1c3cc(NCCN4CCC(C5CCN(CCNc6ccc7ccc8c(c7c6)c6cc(OC)ccc6n8C)CC5)CC4)ccc3ccc1n2C.Cl.Cl | 2.5

// for each compound in input: emit OD
1. COc1ccc2c(c1)c1c3cc(NCCN4CCCCC4)ccc3cc(C)c1n2C.Cl
2. COc1ccc2[nH]c3ccc4ccc(NCCN5CCC(C6CCN(CCNc7ccc8ccc9[nH]c%10ccc(OC)cc%10c9c8c7)CC6)CC5)cc4c3c2c1.CS(=O)(=O)O.CS(=O)(=O)O
3. COc1ccc2c(c1)c1c3ccc(NCCN4CCC(C5CCN(CCNc6ccc7c(ccc8c7c7cc(OC)ccc7n8C)c6)CC5)CC4)cc3ccc1n2C.Cl.Cl

Reply |
[10, 10, 7.5]

* * *

Please provide measured K for the entries that follow.
Test system: Calf thymus DNA
procedure_details: Binding affinity against calf-thymus DNA at pH 7.4
Type: nucleic-acid assay
conditions: Bos taurus
Numbers only, in M⁻¹.

COc1ccc2[nH]c3cc(C)c4ccc(NCCN5CCCCC5)cc4c3c2c1 | 100000
CNc1ccc2ccc3[nH]c4ccc(OC)cc4c3c2c1.I | 290000
CNc1ccc2c(ccc3[nH]c4ccc(OC)cc4c32)c1.I | 200000
CNc1cccc2c1cc(C)c1[nH]c3ccc(OC)cc3c12.I | 61000

I would be grateful if you could provide K for each of the following entries.
1. COc1ccc2[nH]c3c(C)cc4ccc(NCCN5CCC(C6CCN(CCNc7ccc8cc(C)c9[nH]c%10ccc(OC)cc%10c9c8c7)CC6)CC5)cc4c3c2c1.Cl.Cl
2. CNc1ccc2ccc3c(c2c1)c1cc(OC)ccc1n3C.I
3. CNc1ccc2cc(C)c3c(c2c1)c1cc(OC)ccc1n3C.I
4. COc1ccc2c(c1)c1c3ccc(NCCN4CCC(C5CCN(CCNc6ccc7c(ccc8c7c7cc(OC)ccc7n8C)c6)CC5)CC4)cc3ccc1n2C.Cl.Cl
5. COc1ccc2c(c1)c1c3cc(NCCN4CCCCC4)ccc3cc(C)c1n2C.Cl

Reply |
["5e+08", 700000, "1e+06", "6e+06", 610000]

* * *

Tested on: Calf thymus DNA
procedure_details: Binding affinity against calf-thymus DNA at pH 7.4
Assay type: nucleic-acid assay
conditions: Bos taurus
Mark Y for K under 900000 M⁻¹, N if at or over.

Example results:
COc1ccc2[nH]c3c(C)cc4ccc(NCCN5CCCCC5)cc4c3c2c1.Cl | N
COc1ccc2c(c1)c1c3cc(NCCN4CCC(C5CCN(CCNc6ccc7ccc8c(c7c6)c6cc(OC)ccc6n8C)CC5)CC4)ccc3ccc1n2C.Cl.Cl | N
CNc1ccc2c(ccc3c2c2cc(OC)ccc2n3C)c1.I | Y
CNc1ccc2c(c1)cc(C)c1[nH]c3ccc(OC)cc3c12.I | Y
COc1ccc2[nH]c3cc(C)c4ccc(NCCN5CCC(C6CCN(CCNc7ccc8c(C)cc9[nH]c%10ccc(OC)cc%10c9c8c7)CC6)CC5)cc4c3c2c1.Cl.Cl | N

Ask | Take the compound COc1ccc2[nH]c3c(C)cc4cc(NCCN5CCC(C6CCN(CCNc7ccc8c(c7)cc(C)c7[nH]c9ccc(OC)cc9c78)CC6)CC5)ccc4c3c2c1.Cl.Cl and say whether its K is less than 900000 M⁻¹.
Reply | N

Ask | Determine if COc1ccc2[nH]c3ccc4ccc(NCCN5CCC(C6CCN(CCNc7ccc8ccc9[nH]c%10ccc(OC)cc%10c9c8c7)CC6)CC5)cc4c3c2c1.CS(=O)(=O)O.CS(=O)(=O)O shows K strictly lower than 900000 M⁻¹.
Reply | N

* * *

Tested on: L1210
procedure_details: In vivo antitumor activity in L1210 (mouse leukemia) inoculated mice (optimal dose).
Format: functional
experimental_endpoint: OD
Please don't drop the unit; write it after the number.

A selection of reference data follows.
CNc1ccc2c(ccc3[nH]c4ccc(OC)cc4c32)c1.I | 25 mg/kg
COc1ccc2[nH]c3cc(C)c4ccc(NCCN5CCC(C6CCN(CCNc7ccc8c(C)cc9[nH]c%10ccc(OC)cc%10c9c8c7)CC6)CC5)cc4c3c2c1.Cl.Cl | 2 mg/kg
COc1ccc2[nH]c3ccc4ccc(NCCN5CCCCC5)cc4c3c2c1.Cl | 5 mg/kg

Hi! Can you tell me OD for each of these molecules?
1. CNc1ccc2ccc3c(c2c1)c1cc(OC)ccc1n3C.I
2. COc1ccc2[nH]c3ccc4cc(NCCN5CCC(C6CCN(CCNc7ccc8c(ccc9[nH]c%10ccc(OC)cc%10c98)c7)CC6)CC5)ccc4c3c2c1.Cl.Cl
3. COc1ccc2c(c1)c1c3cc(NCCN4CCCCC4)ccc3ccc1n2C.Cl
4. CNc1ccc2c(ccc3c2c2cc(OC)ccc2n3C)c1.I
5. CNc1ccc2ccc3[nH]c4ccc(OC)cc4c3c2c1.I
6. COc1ccc2[nH]c3c(C)cc4ccc(NCCN5CCCCC5)cc4c3c2c1.Cl

Reply |
1. 17 mg/kg
2. 20 mg/kg
3. 5 mg/kg
4. 75 mg/kg
5. 25 mg/kg
6. 5 mg/kg

* * *

System: Calf thymus DNA
procedure_details: Binding affinity against calf-thymus DNA at pH 7.4
Type: nucleic-acid assay
conditions: Bos taurus
Task for the reader: assign each of the following compounds its reported log10(K).
Annotation: log10 of K, M⁻¹ basis.

Examples from the recorded data:
CNc1cccc2c1ccc1[nH]c3ccc(OC)cc3c12.I | 4.60
COc1ccc2[nH]c3ccc4ccc(NCCN5CCCCC5)cc4c3c2c1.Cl | 5.73

# batch size: 5; output log10(K) per entry
1. CNc1ccc2c(C)cc3[nH]c4ccc(OC)cc4c3c2c1.I
2. COc1ccc2c(c1)c1c3cc(NCCN4CCC(C5CCN(CCNc6ccc7cc(C)c8c(c7c6)c6cc(OC)ccc6n8C)CC5)CC4)ccc3cc(C)c1n2C.Cl.Cl
3. COc1ccc2[nH]c3ccc4cc(NCCN5CCC(C6CCN(CCNc7ccc8c(ccc9[nH]c%10ccc(OC)cc%10c98)c7)CC6)CC5)ccc4c3c2c1.Cl.Cl
4. COc1ccc2c(c1)c1c3cc(NCCN4CCCCC4)ccc3ccc1n2C.Cl
5. CNc1ccc2cc(C)c3[nH]c4ccc(OC)cc4c3c2c1.I

Reply |
[4.78, 8.00, 6.48, 6.08, 5.26]

* * *

System: Mus musculus
procedure_details: In vivo change in mean survival time in L1210 (mouse leukemia) inoculated mice.
Assay type: functional
experimental_endpoint: T/C (%)
Give bare numbers, in %.

I'm hoping you can list T/C for every compound here, please.
1. COc1ccc2[nH]c3c(C)cc4ccc(NCCN5CCCCC5)cc4c3c2c1.Cl
2. CNc1ccc2c(ccc3c2c2cc(OC)ccc2n3C)c1.I
3. COc1ccc2c(c1)c1c3cc(NCCN4CCC(C5CCN(CCNc6ccc7ccc8c(c7c6)c6cc(OC)ccc6n8C)CC5)CC4)ccc3ccc1n2C.Cl.Cl
4. CNc1ccc2cc(C)c3[nH]c4ccc(OC)cc4c3c2c1.I
5. COc1ccc2[nH]c3ccc4ccc(NCCN5CCC(C6CCN(CCNc7ccc8ccc9[nH]c%10ccc(OC)cc%10c9c8c7)CC6)CC5)cc4c3c2c1.CS(=O)(=O)O.CS(=O)(=O)O
6. CNc1ccc2ccc3c(c2c1)c1cc(OC)ccc1n3C.I

Reply |
1: 123; 2: 115; 3: 178; 4: 125; 5: 182; 6: 122

Would you mind listing T/C for each of the following compounds?
1. COc1ccc2[nH]c3cc(C)c4ccc(NCCN5CCC(C6CCN(CCNc7ccc8c(C)cc9[nH]c%10ccc(OC)cc%10c9c8c7)CC6)CC5)cc4c3c2c1.Cl.Cl
2. COc1ccc2[nH]c3c(C)cc4ccc(NCCN5CCC(C6CCN(CCNc7ccc8cc(C)c9[nH]c%10ccc(OC)cc%10c9c8c7)CC6)CC5)cc4c3c2c1.Cl.Cl
3. COc1ccc2[nH]c3ccc4cc(NCCN5CCC(C6CCN(CCNc7ccc8c(ccc9[nH]c%10ccc(OC)cc%10c98)c7)CC6)CC5)ccc4c3c2c1.Cl.Cl

Reply |
1: 120; 2: 172; 3: 130
